# Tested on: OVCAR-8
# Test Name: NCI tumour cell line growth inhibition, 48 h
Active and inactive are the calls of the source. No stated cut-off is given here; in the data, active = GI50 up to about 1.1 µM and inactive = higher. Residues, ends and D or L forms follow the SMILES beside them. Peptide text beside a SMILES is read from it. *: point of attachment. X38 = O=C(c1ccc(-c2ccc(Cl)cc2Cl)o1)*
Property: GI50; scope: individual compounds
Endpoint: GI50

Compound	Endpoint	Observed Value
CCC(C)C(NC(=O)C(NC(=O)C(CC(N)=O)NC(=O)CN)C(C)O)C(=O)NC(C(=O)NC(C)C(=O)NC(C(=O)NC(CCC(=O)O)C(=O)NC(CC(C)C)C(=O)NC(CC(=O)O)C(=O)NC(C(=O)NC(Cc1ccc(O)cc1)C(=O)N1CCCC1C(=O)O)C(C)O)C(C)C)C(C)C (configuration not stated) (H-GNTIVAVELDTYP-OH; configuration not given here)	GI50	> 50 µM (inactive)
CC(=O)OC1CCC2(C)C(CCC3C2CCC2(C)C(c4ccc(=O)oc4)C(OC(C)=O)CC32O)C1 (configuration not stated)	GI50	0.0171 µM (active)
CCOC(=O)NC(Nc1ncccn1)(C(=O)OCC)C(F)(F)F (configuration not stated)	GI50	> 100 µM (inactive)
CC(=O)OC1C[C@@H](C)C2(C[C@H](O)c3ccoc3)C(=O)OC[C@]13C2CCC(O)C31CO1 (some centres not stated)	GI50	> 100 µM (inactive)
CSc1c(CC(=O)O)n(Cc2ccccc2)c2ccccc12	GI50	> 100 µM (inactive)
CCOc1ccccc1NC(=O)C(C#N)C1=C(Cl)C(=O)c2ccccc2C1=O (configuration not stated)	GI50	0.792 µM (active)
COc1ccc(C2=CN3CCC[C@H]3C=C2c2cc(O)c(OC)c(OC)c2)cc1OC	GI50	0.00377 µM (active)
COc1ccccc1NC(=O)CC(=O)N1N=C(C)C(/N=N/c2ccc(S(N)(=O)=O)cc2)C1=O (configuration not stated)	GI50	> 100 µM (inactive)
CC(C)(C)NC(=O)C12C3C4C1C1C2C3C41C(=O)NC(C)(C)C (configuration not stated)	GI50	> 100 µM (inactive)
COC(=O)C(CC(C)C)NC(=O)C(Cc1ccccc1)NC(=O)C1CCCN1C(=O)C(CO)NC(=O)c1ccc(-c2ccc(Cl)cc2Cl)o1 (configuration not stated) (X38-SPFL-OMe; configuration not given here)	GI50	36.4 µM (inactive)
C1C[N+]23CCC[N+]2(C1)CCC3 (configuration not stated)	GI50	> 100 µM (inactive)
C=CC(C)(C)C(=C)C(=O)N(C)c1ccccc1I	GI50	> 100 µM (inactive)
C=C(C)c1nc(Oc2ccccc2)nc(Oc2ccccc2)n1	GI50	4.8 µM (inactive)
CCCOc1ccc2sc(NC(=O)c3cc([N+](=O)[O-])cc([N+](=O)[O-])c3)nc2c1	GI50	31.3 µM (inactive)
COc1ccc(-c2cc(-c3ccco3)c(C#N)c(=S)n2C2OC(CO)C(O)C(O)C2O)cc1 (configuration not stated)	GI50	> 100 µM (inactive)
N=C(N)SCc1ccc(Cl)c2ccccc12.O=[N+]([O-])c1c(O)c(Cl)cc(Cl)c1Cl	GI50	17.7 µM (inactive)
COc1cc2oc3c(c(=O)c2c(O)c1/C=C/C(C)C)C(C=C(C)C)Oc1cc(O)ccc1-3 (configuration not stated)	GI50	16.2 µM (inactive)
NS(=O)(=O)c1ccc(NC(=O)c2cccc3c(Nc4ccc(S(N)(=O)=O)cc4)c4ccccc4nc23)cc1	GI50	48.5 µM (inactive)
CC(C)(C)OC(=O)NCC(=O)NC1C/C(=N\O)c2sccc21 (configuration not stated)	GI50	> 100 µM (inactive)
CNC1(C(=O)O)CC1	GI50	> 100 µM (inactive)
CC1=C(N2CC2)C(=O)c2nc3n(c2C1=O)CCC3OC(=O)CCl (configuration not stated)	GI50	0.0452 µM (active)
CC(=O)N1[C@H](C(=O)O)CS[C@H]1c1ccncc1	GI50	32.7 µM (inactive)
CCOc1ccccc1NC(=O)C(=O)c1c(O)c2ccc(O)cc2oc1=O	GI50	> 100 µM (inactive)
CCN(CC)/N=N/c1c(C(N)=O)n[nH]c1C	GI50	49.4 µM (inactive)
CCOC(=S)SSSC(=S)OCC	GI50	13.8 µM (inactive)
CCCCNC(=O)CCN(C(=O)O)S(=O)(=O)c1ccc(NC(=O)c2ccccc2)cc1	GI50	> 100 µM (inactive)
CC(=O)OCC1=C(C(=O)O)N2C(=O)C(NC(=O)CSc3ccncc3)C2SC1 (configuration not stated)	GI50	> 100 µM (inactive)
O=c1[nH]c2ccc(C(F)(F)F)cc2nc1C(F)(F)F	GI50	25.3 µM (inactive)
N#CNc1nc(N)c(-c2ccc(Cl)cc2)c(C(=O)Nc2nccs2)n1	GI50	> 100 µM (inactive)
CNS(=O)(=O)NNS(=O)(=O)c1ccccc1	GI50	> 100 µM (inactive)
CC(C)(c1ccccc1)c1ccc(Oc2ccc3c(c2)-c2nc-3nc3[nH]c(nc4nc(nc5[nH]c(n2)c2ccc(Oc6ccc(C(C)(C)c7ccccc7)cc6)cc52)-c2cc(Oc5ccc(C(C)(C)c6ccccc6)cc5)ccc2-4)c2ccc(Oc4ccc(C(C)(C)c5ccccc5)cc4)cc32)cc1	GI50	> 100 µM (inactive)
COc1cccc(NC(=O)CC(=O)N2N=C(N3c4ccccc4Sc4ccccc43)CC2c2ccccc2)c1 (configuration not stated)	GI50	> 100 µM (inactive)
CCC(CO)Nc1nc(NCc2ccccc2)c2ncn(C(C)C)c2n1 (stereo not drawn) [(RS)-ROSCOVITINE]	GI50	16.7 µM (inactive)
CC(=O)Oc1cc2c(c3ncccc13)OC(C)(C)C2	GI50	14.2 µM (inactive)
NC(=O)CCC(NC(=O)c1cccc2c(=O)c3ccccc3[nH]c12)C(=O)O (configuration not stated)	GI50	> 100 µM (inactive)
CCOC(=O)c1nc2ccccc2nc1NCc1cc(OC)c(OC)c(OC)c1	GI50	58.1 µM (inactive)
COc1cc2nc3n(c(=O)c2cc1OC)-c1ccc([N+](=O)[O-])cc1C3=O	GI50	57.9 µM (inactive)

====

# Tested on: 786-0
# Test Name: NCI tumour cell line growth inhibition, 48 h
Active and inactive are the calls of the source. Rule as the data show it: active = GI50 up to about 1.1 µM and inactive = higher.
Classes used: active, inactive

In [3]: df
Out[3]:
                                    compound  assigned_category
 0  O=c1c2nn3c(=O)n(-c4ccccc4)c(=O)c3nn2c(=O)n1-c1ccccc1           inactive
 1  COc1c2c(c(OC)c3c(=O)cc(C/C(=N/NC(=O)C[n+]4ccccc4)C(=O)Nc4cc(C)ccc4C)oc13)OCO2           inactive
 2               O=C1CCCCC/C1=C\c1ccc(Cl)cc1           inactive
 3                   CC(=O)NCCSC(=O)c1ccccc1             active
 4  COc1cc2oc3c(c(=O)c2c(O)c1/C=C/C(C)C)C(C=C(C)C)Oc1cc(O)ccc1-3 (stereo unspecified)           inactive
 5  O=C(OCCOCCOC(=O)c1c[nH]cc1-c1ccccc1)c1c[nH]cc1-c1ccccc1           inactive
 6  O=C(Nc1ccc(-c2cn3ccccc3n2)cc1)c1cc(Br)ccc1O           inactive
 7  CC(C)C(Cl)CC/C(CBr)=C(\Cl)CCl (stereo unspecified)           inactive
 8         CN(CCc1ccccn1)C(=S)N/N=C/c1ccccn1             active
 9          CCOP(=O)(OCC)c1cc2cc(O)ccc2oc1=O           inactive
10            CCSc1nc(-c2cccs2)nc2ccc(I)cc12           inactive

====

# System: NCI/ADR-RES
# Test Name: NCI tumour cell line growth inhibition, 48 h
Activity calls are given as the source filed them. No stated cut-off is given here; in the data, active = GI50 up to about 1.1 µM and inactive = higher.
Classes used: yes for active, no for inactive

In [3]: df
Out[3]:
                                   compound  system_tested  assigned_category
0              Cc1cccc(NC(=S)Nc2ccccc2Cl)n1    NCI/ADR-RES                 no
1         CC(C)c1[nH]nc(C(N)=O)c1/N=N/N(C)C    NCI/ADR-RES                 no
2  CO[C@H]1Nc2c(ccc(C)c2O)C(=O)N2C=C(/C=C/C(N)=O)C[C@@H]12 [ANTHRAMYCIN METHYL ETHER]    NCI/ADR-RES                yes
3  O=C1/C(=C\c2ccc(O)cc2)CCC/C1=C/c1ccc(Cl)c(Cl)c1    NCI/ADR-RES                 no
4         CN(CCc1ccccn1)C(=S)N/N=C/c1ccccn1    NCI/ADR-RES                yes

Where do these numbers come from? They come from ChEMBL document CHEMBL1201862.
